# target.under.test: LC3B (residues 1-125 of human LC3B) (human, UniProt Q9GZQ8 1-125)
# test.description: ITC
# conditions: both partners purified
property.name: pKd
Expect pKd as a plain number equal to -log10 of the molar concentration.

For the binder DVEMESEEESDDDGFVEVD [NSs4 (residues 247-265 of RVFV NSs)] , what pKd is on record?
6.22
